# measurementDescription: Water solubility of racemic and optically active dihydropyridines, free or bound in inclusion complexes (room temperature, filtrates of saturated solutions, liquid chromatography)
# runParameters: bound in inclusion complex with HP-β-CD (2-hydroxypropyl-cyclodextrin); room temperature
Structures can show the parent of a compound that is named as a salt.
I'd appreciate it if you could supply Water solubility, complex. HP-β-CD values for the items below.
Supply the numeric figure in mg/mL, leaving out any unit text.

The measured Water solubility, complex. HP-β-CD associated with COC(=O)C1=C(C)NC(C)=C(C(=O)OCCN(C)Cc2ccccc2)C1c1cccc([N+](=O)[O-])c1 (single isomer, unassigned; (-)) [(-)nicardipine.HCl] reads 68.0

The measured Water solubility, complex. HP-β-CD associated with CCOC(=O)C1=C(COCCN)NC(C)=C(C(=O)OC)C1c1ccccc1Cl (stereo not shown) [amlodipine besylate] reads 17.0

The measured Water solubility, complex. HP-β-CD associated with COC(=O)C1=C(C)NC(C)=C(C(=O)OCCN(C)Cc2ccccc2)C1c1cccc([N+](=O)[O-])c1 (single isomer, unassigned; (+)) [(+)nicardipine.HCl] reads 59.9

The measured Water solubility, complex. HP-β-CD associated with COC(=O)C1=C(C)NC(C)=C(C(=O)OCCN(C)Cc2ccccc2)C1c1cccc([N+](=O)[O-])c1 (racemic) [(±)nicardipine.HCl] reads 97.9

* * *

I'd appreciate it if you could supply solubility values for the items below.
# measurementDescription: physchem
# runParameters: water
Structures can show the parent of a compound that is named as a salt.
Supply the numeric figure in µg/mL, leaving out any unit text.

The measured solubility associated with CCOC(=O)C1=C(C)NC(C)=C(C(=O)OC)C1c1cccc(Cl)c1Cl (stereo not shown) reads 0.8

The measured solubility associated with CCOC(=O)C1=C(C)NC(C)=C(C(=O)OC)C1c1cccc([N+](=O)[O-])c1 (racemic) [(±)nitrendipine] reads 0.6

The measured solubility associated with COC(=O)C1=C(C)NC(C)=C(C(=O)OCCN(C)Cc2ccccc2)C1c1cccc([N+](=O)[O-])c1 (racemic) [(±)nicardipine.HCl] reads 1500

The measured solubility associated with CCOC(=O)C1=C(COCCN)NC(C)=C(C(=O)OC)C1c1ccccc1Cl (stereo not shown) [amlodipine besylate] reads 1100
